- Test system: OVCAR-8 ovarian
- assay: NCI tumour cell line growth inhibition, 48 h
quantity-measured: TGI

Here are 8 compounds together with their reported answers.
> print(dat)
                                   compound  reported.value
1  CCC1CCCCN1C(=S)N/N=C(\C)c1ccccn1 (centres undefined)         2.06 µM
2  O=CC1OC(=O)c2cc(O)c(O)c(O)c2-c2c(cc(O)c(O)c2O)C(=O)OC1C(O)C(O)CO (centres undefined)         45.8 µM
3  Cc1cc(O)c(/C=N/c2nc(-c3cccc([N+](=O)[O-])c3)cs2)c(=O)o1        > 100 µM
4                   CC(C)(C)N1CC(OC(N)=O)C1        > 100 µM
5  O=C(c1cc2c(C(F)(F)F)onc2c2ccccc12)C(F)(F)F         7.66 µM
6  O=c1[nH]c2ccc(CC(=S)N3CCN(c4ccccc4)CC3)cc2o1        > 100 µM
7       Cn1c2ccccc2n2c(=O)c3cccnc3c(C#N)c12        > 100 µM
8  CC(NC(=O)C(N)CC(=O)O)NC(=O)N1CCOCC1 (centres undefined)        > 100 µM

The reported value for C[C@@H](NC1CCC[C@@H]1O)c1ccccc1 (some centres undefined) in terms of TGI is > 100 µM

Record CC1=C2C(=O)C(C)(C)C=C2C(=O)[C@](C)(O)C12CC2 , field TGI: > 1 µM

Given item Clc1ccc2c(NCCNc3ccnc4cc(Cl)ccc34)ccnc2c1 , the value recorded as its TGI is 43.1 µM

The compound listed as CC1Cc2c(N)nc(N3CCOCC3)nc2NC1=O (centres undefined) has a reported TGI of > 100 µM

TGI measured on COc1ccc(-c2nc(N)c3ncn(C4OC(CO)C(O)C4O)c3n2)cc1 (centres undefined) = > 100 µM

Briefly, TGI measured for Oc1ccc2ccccc2c1N=Nc1ccccn1 : > 27.4 µM

get_value(item= N#C[C@@]12CCCC(=O)[C@@H]1[C@H]1CCC[C@H]12 , readout=TGI) returns 47.5 µM

Looking up NC1=NC(c2ccccc2)CC(c2cc(Cl)cc(Br)c2O)=N1 (centres undefined) , I see its TGI listed as 38.5 µM

TGI in this record for CC(=O)N1N=C(N)CC1=O : > 100 µM

Notebook: Nc1nc(N)c2nnn(C[C@H]3CC[C@@H](CO)C3)c2n1 , TGI read as > 100 µM

Record summary for Oc1cccc(Cn2c(-c3cccc(O)c3O)nc3ccccc32)c1O : reported TGI = 53.1 µM

Recorded result, Fc1cc(-c2ncc(Cl)cc2Cl)c2cccccc1-2 , TGI: > 100 µM

// TGI value for CC[C@@]1(O)C(=O)OCc2c1cc1n(c2=O)Cc2c-1nc1ccccc1c2/C=N\NC(=O)C(N)Cc1cnc[nH]1 (some centres undefined) : 16.1 µM

// recorded TGI for O=c1ccccc(-c2ccc(-c3ccco3)cc2)c1O : 29 µM

Entry under test: CCc1n[nH]c(=O)n1NC(=O)c1ccccc1C(=O)O . Its TGI was > 100 µM

Value of measured TGI for the entry COc1ccc(Cl)cc1NC(=O)c1c(NC(=O)C(F)(F)C(F)(F)F)sc2c1CCCCC2 : > 100 µM
